Endpoint summary: IC50, system: Histone-lysine N-methyltransferase NSD2 (Homo sapiens), multiple sources combined.
Value expressed in µM; do not type the unit.

A selection of reference data follows.
INSERT INTO assay_data (molecule, system_name, reported) VALUES
  ('Cn1nnc2cc(NC(=O)Nc3cccc([N+](=O)[O-])c3)ccc21', 'Histone-lysine N-methyltransferase NSD2 (Homo sapiens)', 8.3),
  ('Cc1cc(CN)cc(C)c1-c1ncn(C)c1-c1ccc(C#N)c(F)c1', 'Histone-lysine N-methyltransferase NSD2 (Homo sapiens)', 2.91),
  ('Cn1cnc(-c2ccc(CN)cc2)c1-c1ccc(C#N)cc1', 'Histone-lysine N-methyltransferase NSD2 (Homo sapiens)', 13.9),
  ('Cc1cc(CN)cc(C)c1-c1ncn(C)c1-c1ccc(C#N)cc1', 'Histone-lysine N-methyltransferase NSD2 (Homo sapiens)', 0.57),
  ('N#Cc1c(N)[nH]c2ccc(Oc3ccc(NC(=O)[C@@H](N)CO)cc3)cc12', 'Histone-lysine N-methyltransferase NSD2 (Homo sapiens)', 11),
  ('O=c1cc(-c2ccc(O)cc2)oc2cc(O)c(O)c(O)c12', 'Histone-lysine N-methyltransferase NSD2 (Homo sapiens)', 2.65),
  ('Cc1cc(N)cc(C)c1-c1ncn(C)c1-c1ccc(C#N)c2ccccc12', 'Histone-lysine N-methyltransferase NSD2 (Homo sapiens)', 10.6),
  ('Cn1cnc(-c2ccc(CN)cc2C(F)(F)F)c1-c1ccc(C#N)cc1', 'Histone-lysine N-methyltransferase NSD2 (Homo sapiens)', 6.01);

Form field: IC50 recorded for Cc1cc(CNC2CC2)cc(C)c1-c1ncn(C)c1-c1ccc(C#N)c2ccccc12 with Histone-lysine N-methyltransferase NSD2 (Homo sapiens) (enter value)
0.43

Form field: IC50 recorded for COc1cc(-c2c(-c3c(C)cc(CN)cc3C)ncn2C)ccc1C#N with Histone-lysine N-methyltransferase NSD2 (Homo sapiens) (enter value)
10.9

Form field: IC50 recorded for Cc1cc(CNC(C)(C)C)cc(C)c1-c1ncn(C)c1-c1ccc(C#N)c2ccccc12 with Histone-lysine N-methyltransferase NSD2 (Homo sapiens) (enter value)
0.64

Form field: IC50 recorded for Cc1cc(CN2CCC(O)C2)cc(C)c1-c1ncn(C)c1-c1ccc(C#N)c2ccccc12 (configuration not stated) with Histone-lysine N-methyltransferase NSD2 (Homo sapiens) (enter value)
0.52

Form field: IC50 recorded for Cc1cc(CN)cc(C)c1-c1ncn(C)c1-c1ccc(C#N)c2ccccc12 with Histone-lysine N-methyltransferase NSD2 (Homo sapiens) (enter value)
0.52

Form field: IC50 recorded for Cc1cc(CN2CCC(N(C)C)C2)cc(C)c1-c1ncn(C)c1-c1ccc(C#N)c2ccccc12 (configuration not stated) with Histone-lysine N-methyltransferase NSD2 (Homo sapiens) (enter value)
2

Form field: IC50 recorded for CCNCc1cc(C)c(-c2ncn(C)c2-c2ccc(C#N)c3ccccc23)c(C)c1 with Histone-lysine N-methyltransferase NSD2 (Homo sapiens) (enter value)
0.7

Form field: IC50 recorded for Cn1cnc(-c2ccc(CN)cc2Cl)c1-c1ccc(C#N)cc1 with Histone-lysine N-methyltransferase NSD2 (Homo sapiens) (enter value)
6.11

Form field: IC50 recorded for Cc1cc(CN2CCOCC2)cc(C)c1-c1ncn(C)c1-c1ccc(C#N)c2ccccc12 with Histone-lysine N-methyltransferase NSD2 (Homo sapiens) (enter value)
3.84

Form field: IC50 recorded for Cn1c(N)c(C#N)c2cc(Oc3ccc(NC(=O)CN)cc3)ccc21 with Histone-lysine N-methyltransferase NSD2 (Homo sapiens) (enter value)
47

* * *

Endpoint summary: IC50, system: Histone-lysine N-methyltransferase NSD2 (Homo sapiens, UniProt O96028), multiple sources combined.
Sequence (O96028 whole entry): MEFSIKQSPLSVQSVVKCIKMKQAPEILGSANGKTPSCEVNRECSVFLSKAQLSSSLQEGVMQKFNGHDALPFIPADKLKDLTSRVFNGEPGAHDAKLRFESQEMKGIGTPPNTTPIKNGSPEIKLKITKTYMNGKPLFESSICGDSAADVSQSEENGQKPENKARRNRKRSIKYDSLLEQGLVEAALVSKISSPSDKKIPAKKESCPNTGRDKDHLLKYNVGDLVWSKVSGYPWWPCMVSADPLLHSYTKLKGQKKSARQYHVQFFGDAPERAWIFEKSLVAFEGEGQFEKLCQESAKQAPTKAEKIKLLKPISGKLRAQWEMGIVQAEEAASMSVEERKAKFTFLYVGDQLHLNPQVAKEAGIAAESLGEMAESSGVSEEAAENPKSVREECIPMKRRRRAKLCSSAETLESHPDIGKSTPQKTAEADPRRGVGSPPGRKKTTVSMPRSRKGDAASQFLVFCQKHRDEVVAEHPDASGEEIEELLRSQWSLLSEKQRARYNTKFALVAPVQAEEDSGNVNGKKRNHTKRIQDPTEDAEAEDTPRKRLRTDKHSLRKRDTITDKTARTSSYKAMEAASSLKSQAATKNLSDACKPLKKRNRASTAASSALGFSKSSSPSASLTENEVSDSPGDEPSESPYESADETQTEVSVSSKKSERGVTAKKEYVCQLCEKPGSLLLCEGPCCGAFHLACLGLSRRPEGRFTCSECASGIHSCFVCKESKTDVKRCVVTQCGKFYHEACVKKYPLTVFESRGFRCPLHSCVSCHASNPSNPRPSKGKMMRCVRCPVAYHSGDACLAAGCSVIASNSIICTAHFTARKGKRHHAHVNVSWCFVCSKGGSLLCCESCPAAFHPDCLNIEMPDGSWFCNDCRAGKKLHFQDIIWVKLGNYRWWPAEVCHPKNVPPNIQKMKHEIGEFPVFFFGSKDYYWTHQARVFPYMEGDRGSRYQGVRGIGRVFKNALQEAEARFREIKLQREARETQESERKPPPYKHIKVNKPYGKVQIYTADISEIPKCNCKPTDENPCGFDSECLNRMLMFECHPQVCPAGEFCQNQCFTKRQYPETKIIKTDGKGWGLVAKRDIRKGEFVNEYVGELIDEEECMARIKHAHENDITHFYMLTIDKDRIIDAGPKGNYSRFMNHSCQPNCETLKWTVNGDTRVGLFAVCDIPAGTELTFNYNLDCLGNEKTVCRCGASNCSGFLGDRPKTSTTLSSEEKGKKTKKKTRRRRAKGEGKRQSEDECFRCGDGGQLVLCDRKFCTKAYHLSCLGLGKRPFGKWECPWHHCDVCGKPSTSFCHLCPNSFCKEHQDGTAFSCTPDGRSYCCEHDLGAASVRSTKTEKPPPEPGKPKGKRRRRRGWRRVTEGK

A selection of reference data follows.
INSERT INTO measurements (compound, reported) VALUES
  ('Cn1c(N)c(C#N)c2cc(OCc3ccccc3)ccc21', '> 100 µM'),
  ('Cn1c(N)c(C#N)c2cc(OCc3cccc(N)c3)ccc21', '> 100 µM'),
  ('C=CC(=O)NCc1cc(C(=O)NCc2c(SC)cc(C)[nH]c2=O)c(C)c(N(CC)C2CCOCC2)c1', '> 10 µM');

Please look at the following compound next.
Which IC50 value is on record for CCC(O)c1cc(C)c(-c2ncn(C)c2-c2ccc(C#N)c3ccccc23)c(C)c1 (centres undefined) ?
> 24 µM
